From: PubChem BioAssay AID1578

Listed here are compounds together with their documented inhibition.
- EXPERIMENT_SUMMARY: NOD1 signaling inhibitors, primary screen, cell-based, luminescence, uHTS (AID 1578);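 also: HEK-293T reporter cells stimulated with the NOD1 agonist gamma-tri-DAP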
- TEST_PARAMETERS: NOD1-driven NF-kB luciferase reporter cells, at 4 µM, hits give high values
The campaign covered roughly 290,000 compounds. About 3,000 (1%) were called active. Many of the other results were omitted from the sample, so actives are more common in it than they were.

COMPOUND_SMILES | inhibition, %
CCN(C(=O)CSc1nc2cc(C(=O)OC)ccc2c(=O)n1Cc1ccco1)c1cccc(C)c1 | 74
COC(=O)c1cc(=O)n(Cc2ccc3c(c2)OCO3)c(=Nc2ccccc2)s1 | 73.6
CCc1ccc(NC(=O)CSc2nc3cc(C(=O)OC)ccc3c(=O)n2Cc2ccco2)cc1 | -7.4
Cc1cc(=O)[nH]c(SCC(=O)Nc2ccc(F)cc2)c1C#N | -21.3
CCc1nccn1S(=O)(=O)c1cc(OC)c(Cl)cc1OC | -4.5

* * *

Listed here are molecules together with their documented inhibition.
- EXPERIMENT_SUMMARY: NOD1 signaling inhibitors, primary screen, cell-based, luminescence, uHTS (AID 1578);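 also: HEK-293T reporter cells stimulated with the NOD1 agonist gamma-tri-DAP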
- TEST_PARAMETERS: NOD1-driven NF-kB luciferase reporter cells, at 4 µM, hits give high values
About 3,000 (1%) of roughly 290,000 compounds were called active. This excerpt belongs to a sample that is enriched for actives.

COMPOUND_SMILES | inhibition, %
O=C(CCCOc1ccccc1)Nc1nncs1 | 2.6
Cc1ccccc1NC(=O)c1ccccc1-c1ccccc1 | -24.9
O=c1[nH]ncc2c3ccccc3n(Cc3ccccc3)c12 | 36.5
Cc1ccccc1OCCCC(=O)Nc1nncs1 | 51.4
CCN1CCN(Cc2ccc(NC(=O)c3ccc(C)c(NC(=O)c4ccnnc4)c3)cc2C(F)(F)F)CC1 | 3.7
COc1cnn(-c2ccc(C)cc2)c(=O)c1Cl | -22.7
O=C(NNc1ccc(F)cc1F)C1CCC1 | -1.9
O=c1[nH]ncc2c3ccccc3n(Cc3ccc(F)cc3)c12 | -2.2
CC(C)c1cc(C(=O)N/N=C/c2c[nH]c3ccccc23)n[nH]1 | -15.2
O=C(CCS(=O)(=O)c1ccccc1)Nc1nncs1 | 3.3
CCN1CCN(Cc2ccc(NC(=O)c3ccc(C)c(NC(=O)c4cccc(-c5cn[nH]c(=O)c5)c4)c3)cc2C(F)(F)F)CC1 | 72
CC(C)(C)NC(=O)CN(Cc1ccc2c(c1)OCO2)C(=O)CNC(=O)c1cccs1 | -12.6

* * *

- EXPERIMENT_SUMMARY: NOD1 signaling inhibitors, primary screen, cell-based, luminescence, uHTS (AID 1578);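 also: HEK-293T reporter cells stimulated with the NOD1 agonist gamma-tri-DAP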
- TEST_PARAMETERS: NOD1-driven NF-kB luciferase reporter cells, at 4 µM, hits give high values
Among all 290,000 compounds or so, about 3,000 (1%) were called active. The list comes from a sample in which actives are over-represented; it also holds close analogues and randomly drawn compounds.
EXPERIMENTAL_READOUT: inhibition (%)

COMPOUND | VALUE_OBSERVED
Cc1ccc2cc(NC(=O)CC(CC(=O)O)c3ccccc3)ccc2n1 (stereo unspecified) | -10.4
Cc1oc(-c2ccccc2Cl)nc1CSc1nc2c(c(=O)[nH]1)CCC2 | 34
Cc1ccc(NC(=O)CCCc2nc3ccccc3s2)c(O)c1 | -33.8
Cc1ccc(S(=O)(=O)N2CCN(c3ccc([N+](=O)[O-])cn3)CC2)cc1 | -9.1
Cc1ccc(NC(=O)/C(C#N)=C/c2ccccc2C(F)(F)F)cc1 | -32.5
Cc1ccc2nc(NC(=O)CCCc3nc4ccccc4s3)sc2c1 | -29
Cc1ccc(/C=C2/SC(=Nc3ccc(F)cc3)NC2=O)s1 | -8.8
Cc1ccc(C(=O)N2CCOCC2)cc1S(=O)(=O)N1CCCCC1 | -11.7
CCC(C)(C)NC(=O)C(c1ccc(OC)cc1)N(C(=O)CCC(=O)Nc1cc(C)on1)c1ccc(F)cc1 (stereo unspecified) | -11.7
Cc1c(CCO)c(=O)[nH]n1S(=O)(=O)c1ccc(F)cc1 | -15.6
Cc1ccc(NC(=O)CCc2nc3ccccc3s2)c(O)c1 | 43

* * *

- EXPERIMENT_SUMMARY: NOD1 signaling inhibitors, primary screen, cell-based, luminescence, uHTS (AID 1578);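 also: HEK-293T reporter cells stimulated with the NOD1 agonist gamma-tri-DAP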
- TEST_PARAMETERS: NOD1-driven NF-kB luciferase reporter cells, at 4 µM
Hit rate of the full screen: of about 290,000 compounds, about 3,000 (1%) were called active. Cut-off read from the data, not from the text of the source: active = inhibition mostly above about 36% (no sharp cut-off); inactive = mostly below about 34%. Many of the other results were omitted from the sample, so actives are more common in it than they were.
Outcome codes: True (active), False (inactive)

MOLECULE | QUALITATIVE_LABEL
CN(C)c1nc2n(c(=O)n1)CCS2 | False
COc1ccc(N=CC2=C(O)c3ccccc3C2=O)c(OC)c1 | True
CC1CN(C(=O)CCNC(=O)c2ccc(Cl)cc2)CC(C)O1 (stereo unspecified) | False
COc1ccc(N(C(C)C(=O)N/N=C/c2ccc(OC(C)C)cc2)S(C)(=O)=O)cc1 (stereo unspecified) | False
N#C/C(=C\c1ccc(F)c(Cl)c1)S(=O)(=O)c1ccccn1 | False
COc1cc(N=CC2=C(O)c3ccccc3C2=O)cc(OC)c1 | False
Cc1cc(C)cc(N(C(=O)c2csnn2)C(C(=O)NC(C)(C)C)c2cccs2)c1 (stereo unspecified) | False
O=C1CC(N2CCC(c3nc4ccccc4[nH]3)CC2)C(=O)N1Cc1ccccc1 (stereo unspecified) | False
CCOC(=O)c1sc2nc[nH]c(=O)c2c1C | False
O=C(NCCCn1ccnc1)c1ccc(Cl)c(Cl)c1 | False
CCCCCNC(=O)c1c[nH]c2ccc(S(=O)(=O)N3CCC4(CC3)OCCO4)cc2c1=O | False

* * *

- EXPERIMENT_SUMMARY: NOD1 signaling inhibitors, primary screen, cell-based, luminescence, uHTS (AID 1578);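 also: HEK-293T reporter cells stimulated with the NOD1 agonist gamma-tri-DAP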
- TEST_PARAMETERS: NOD1-driven NF-kB luciferase reporter cells, at 4 µM, hits give high values
Screen size: about 290,000 compounds; about 3,000 (1%) were called active. This excerpt belongs to a sample that is enriched for actives.
EXPERIMENTAL_READOUT: inhibition (%)

COMPOUND | VALUE_OBSERVED
CC(=O)Nc1c(C(=O)O)oc2ccc(Cl)cc12 | 2.5
Cc1ccc(NC(=O)CSc2nnc(C)n2CC2CCCO2)cc1 (centres undefined) | -27.7
CCN1CCN(CC(O)COCCOc2ccc(Br)cc2)CC1 (centres undefined) | -19.1
CCOC(=O)CSC1=NN2CCS(=O)(=O)N=C2S1 | -12.9
Cn1cc(C(=O)NS(=O)(=O)Nc2ccc(Br)cn2)c2ccccc21 | -29
O=C(c1ccc2nc(Cc3cccc(Cl)c3)oc2c1)N1CCC[C@H]1CO | -34
Cc1ccsc1C=Nc1ccc(O)cc1 | 27.4
COc1ccc(CCNC(=O)c2cc3sccc3n2C)cc1OC | 5.4
Cc1csc(SCCn2c(N3CCOCC3)nc3c2c(=O)[nH]c(=O)n3C)n1 | -13.7
Cc1cc(C)c2cc(CN(CCO)Cc3nnnn3Cc3ccccc3)c(=O)[nH]c2c1 | -12.5
CCOc1ccc(CCNC(=O)c2cc3sccc3n2C)cc1OCC | 26.3
Cc1ccccc1C(=O)Nc1c(C)[nH]c(=O)[nH]c1=O | -1.1
COc1cccc(CN(C)CC(=O)NCc2ccccc2Cl)c1 | 8.1
Cc1cccc(OCCOC(=O)C2CCN(S(=O)(=O)c3ccc(C)c(C)c3)CC2)c1 | -9.6
COc1cc2[nH]c(=S)nc(NCc3ccc(Cl)cc3)c2cc1OC | -8.3
Cc1ccc(S(=O)(=O)Nc2nc3ccccc3nc2N2CCN(c3ccccc3F)CC2)cc1 | 5.2
CC(C)CC(=O)NC(C)C(c1cccs1)N1CCOCC1 (centres undefined) | -10.9
CCN(CCCNC(=O)CN1C(=O)COc2ccccc21)c1cccc(C)c1 | 14.9
CN1/C(=C\C(=O)C[n+]2cccc(C(N)=O)c2)C(C)(C)c2ccccc21 | 7.7
COc1cc2cc(CN(Cc3cccnc3)C(=O)Nc3ccccc3F)c(=O)[nH]c2cc1OC | -29.7
COc1cccc(CNC(=O)COc2ccc(C(=O)c3ccccc3)cc2)c1 | 4
CN1CCN(CC(O)COCCOc2ccc(Br)cc2)CC1 (centres undefined) | -26
Cc1ccsc1/C=N/n1cnnc1 | -5.7
O=C(CN1CCN(c2ccccc2)CC1)Nc1ccc(Oc2ccccc2)cc1 | -2.2

* * *

- EXPERIMENT_SUMMARY: NOD1 signaling inhibitors, primary screen, cell-based, luminescence, uHTS (AID 1578);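 also: HEK-293T reporter cells stimulated with the NOD1 agonist gamma-tri-DAP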
- TEST_PARAMETERS: NOD1-driven NF-kB luciferase reporter cells, at 4 µM, hits give high values
In all, about 290,000 compounds went through this assay and about 3,000 (1%) were called active. The entries come from a sample that favours actives as a whole.
EXPERIMENTAL_READOUT: inhibition (%)

MOLECULE | VALUE_OBSERVED
Cc1ccccc1NC(=S)N1CCN(Cc2ccc3c(c2)OCO3)CC1 | -15.3
O=C(c1ccccc1)N1CCN(Cc2ccc3c(c2)OCO3)CC1 | -5.8
CCN(CC)c1ccc(C(=O)NC(=S)N2CCN(Cc3ccc4c(c3)OCO4)CC2)cc1 | -0.4
Cc1ccc2c(=O)cc(C(=O)NC3CCS(=O)(=O)C3)oc2c1 (stereo unspecified) | -12
Cc1cccnc1NC(=O)c1cccc(S(=O)(=O)N2CCCc3ccccc32)c1 | -13
CCCOC(=O)Cn1cnc2scc(-c3ccc(OC)cc3)c2c1=O | 41.3
Cc1cc(Cl)ccc1NC(=S)N1CCN(Cc2ccccc2)CC1 | -13.4
O=C(c1n[nH]c(=O)c2ccccc12)N1CCN(Cc2ccc3c(c2)OCO3)CC1 | 3.4
COc1ccc(NC(=O)Nc2cccc3ccccc23)c(OC)c1 | 19.9
C=CCOC(=O)c1sc(NC(=O)c2ccc(OC)cc2)nc1C | -27.6
O=C(NC(=S)N1CCN(Cc2ccc3c(c2)OCO3)CC1)c1ccc(Cl)cc1 | -3.6
